// compounds with pIC50 on Neprilysin (Rattus norvegicus), multi-source literature
pIC50: −log10 of the molar value.
endpoint-label: pIC50

# count of solved cases: 3
- compound: "COc1ccc(NC(=O)C(CS)Cc2ccccc2)cc1 (centres unmarked)"
  study-system: "Neprilysin (Rattus norvegicus)"
  pIC50: 7.30
- compound: "CC(C)C[C@H](NC(=O)[C@H](Cc1ccccc1)NC(=O)[C@@H]1CCCC[C@H]1S)C(=O)O (single isomer, unassigned; isomer a)"
  study-system: "Neprilysin (Rattus norvegicus)"
  pIC50: 5.92
- compound: "CC(CS)C(=O)N[C@@H](C)C(=O)O (mixture of isomers)"
  study-system: "Neprilysin (Rattus norvegicus)"
  pIC50: 6.92

1 = CC(C)CC(CS)C(=O)N[C@@H](CC(C)C)C(=O)O (mixture of isomers)
2 = O=C(N[C@@H](Cc1ccc(-c2ccccc2)cc1)C(=O)O)C(CS)Cc1ccco1 (some centres unmarked)
## Input For the two items 1 and 2 , which reports the higher pIC50 value? Selection: enter the item's label.
## Output 2
(2: 8.43, 1: 7.92)

* * *

Reported pIC50 against Neprilysin (Rattus norvegicus, UniProt P07861), gathered from multiple publications, appears below.
pIC50: −log10 of the molar value.
endpoint-label: pIC50

Past entries and their recorded results:
- molecule: "CC(CS)C(=O)N[C@@H](Cc1c[nH]c2ccccc12)C(=O)O (mixture of isomers)"
  numeric-result: 7.70
- molecule: "C[C@H](NC(=O)[C@H](Cc1ccccc1)NC(=O)CS)C(=O)O"
  numeric-result: 7.51
- molecule: "C[C@H](NC(=O)C(CS)Cc1ccccc1)C(=O)N1CCC[C@H]1C(=O)O (mixture of isomers)"
  numeric-result: 8.22
- molecule: "O=C(Nc1ccc(Cl)cc1)C(CS)Cc1ccccc1 (centres unmarked)"
  numeric-result: 6.00
- molecule: "CCCN(CCC)C(=O)NC(CS)Cc1ccccc1 (single isomer, unassigned; (+))"
  numeric-result: 6.74
- molecule: "CC(C)C[C@H](NC(=O)C(C)CS)C(=O)O (mixture of isomers)"
  numeric-result: 7.16
- molecule: "N=C(N)NCCC[C@H](NC(=O)C(CS)Cc1ccccc1)C(=O)O (mixture of isomers)"
  numeric-result: 6.54
- molecule: "CN(O)C(=O)NC(CS)Cc1ccccc1 (single isomer, unassigned; (+))"
  numeric-result: 8.46
- molecule: "COc1cccc(CC(CS)C(=O)N[C@@H](Cc2ccc(-c3ccccc3)cc2)C(=O)O)c1 (single isomer, unassigned)"
  numeric-result: 7.80
- molecule: "O=C(NN1CCCC1)C(CS)Cc1ccccc1 (centres unmarked)"
  numeric-result: 7.15

1 = O=C(O)CCCCCCCCCCNC(=O)C(CS)Cc1ccccc1 (racemic)
2 = CC(CS)C(=O)NCC(=O)O (racemic)
3 = CC(C)CC(CS)C(=O)N[C@@H](CCCNC(=N)N)C(=O)O (mixture of isomers)
## Input Please put the entries in order of rising pIC50. Ranked list of labels, please, in the requested order.
## Output 2, 3, 1

a = CC(C)CC(CP(=O)(O)CNC(=O)OCc1ccccc1)C(=O)N[C@@H](Cc1ccc(-c2nccs2)cc1)C(=O)O (some centres unmarked)
b = CC[C@H](C)[C@H](S)C(=O)N[C@H]1CC[C@H](C)[C@H]2SC[C@@H](C(=O)O)N2C1=O
c = CC(=O)SCC(=O)N[C@@H](Cc1ccccc1)[C@H](O)C(=O)O
d = O=C(CS)N[C@@H](Cc1ccccc1)[C@H](O)C(=O)O
## Input Order the 4 molecules from highest to lowest pIC50. Provide the ranking by listing each label in its place in the requested order.
## Output b, a, d, c
(b: 8.37, a: 7.31, d: 4.70, c: 3.52)

* * *

Study the reported IC50 values for Neprilysin (Rattus norvegicus) given below; they originate from different publications.
endpoint-label: IC50 (nM)

- compound: "CC(C)CC(CS)C(=O)NCCC(=O)N[C@@H](CCCNC(=N)N)C(=O)O (mixture of isomers)"
  uom: "nM"
  numeric-result: 95
- compound: "O=C(O)CCCCC(=O)NC(CS)Cc1ccccc1 (stereo not drawn)"
  uom: "nM"
  numeric-result: 3.1
- compound: "CC(C)CC(CS)C(=O)NCC(=O)N[C@@H](CCC(N)=O)C(=O)O (mixture of isomers)"
  uom: "nM"
  numeric-result: 330

A = O=C(O)CC(=O)NC(CS)Cc1ccccc1 (stereo not drawn)
B = O=C(O)C[C@H](Cc1ccccc1)NC(=O)C(CS)Cc1ccccc1 (single isomer, unassigned; isomer a)
C = CC(=O)SCC(Cc1ccccc1)C(=O)Nc1ccccc1 (stereo not drawn)
D = CONC(=O)NC(CSC(C)=O)Cc1ccccc1 (stereo not drawn)
## Input In this exercise, place the 4 compounds in ascending sequence of their recorded IC50. Please reply with the labels ordered as requested. Many thanks.
## Output A, B, D, C
(A: 12 nM, B: 18 nM, D: 87 nM, C: 10000 nM)

* * *

The following compounds were reported with IC50 values on Neprilysin (Rattus norvegicus, UniProt P07861) in different studies.
endpoint-label: IC50 (nM)

- compound: "CC(CS)C(=O)N[C@@H](CCCNC(=N)N)C(=O)O (mixture of isomers)"
  numeric-result: 720
- compound: "O=C(Nc1ccccc1)C(CS)Cc1ccccc1 (stereo not drawn)"
  numeric-result: 1000
- compound: "CC(C)CC(CS)C(=O)N[C@@H](C)C(=O)N[C@@H](CCCN=C(N)N)C(=O)O (single isomer, unassigned; isomer a)"
  numeric-result: 23
- compound: "CC(CS)C(=O)N[C@@H](CCC(=O)O)C(=O)O (mixture of isomers)"
  numeric-result: 110
- compound: "CCCN(CCC)C(=O)NC(CSC(C)=O)Cc1ccccc1 (stereo not drawn)"
  numeric-result: 48

1 = CC[C@H](C)[C@H](NC(=O)[C@H](C)CS)C(=O)O
2 = O=C(N[C@@H](Cc1c[nH]c2ccccc12)C(=O)O)C(CS)Cc1ccccc1 (mixture of isomers)
## Input Choose between 1 and 2 : whose measured IC50 value is numerically larger? // output: label of the selected item
## Output 1

* * *

Neprilysin (Rattus norvegicus, UniProt P07861) IC50, compiled from various sources.
endpoint-label: IC50 (nM)

- compound: "O=C(O)c1cc(NC(=O)C(CS)Cc2ccc(Cl)cc2)c[nH]1 (centres unmarked)"
  IC50 [nM]: 2.7
- compound: "O=C(N[C@@H](Cc1ccccc1)C(=O)O)C(CS)Cc1ccccc1 (single isomer, unassigned; isomer b)"
  IC50 [nM]: 8.9
- compound: "CC(=O)SCC(Cc1ccccc1)C(=O)Nc1ccc(Cl)cc1 (centres unmarked)"
  IC50 [nM]: 1000
- compound: "O=C(O)CCCCCNC(=O)C(CS)Cc1ccccc1 (racemic)"
  IC50 [nM]: 59

A = CC[C@H](C)[C@H](S)C(=O)N[C@H]1C[C@@H](C)C[C@H]2SC[C@@H](C(=O)O)N2C1=O
B = CC(CS)C(=O)N[C@@H](CO)C(=O)O (mixture of isomers)
## Input // max by IC50 over [ A , B ] Label of pick, please.
## Output B
(B: 280 nM, A: 13 nM)

A = C[C@@H](CS)C(=O)N[C@@H](Cc1ccc(O)c(O)c1)C(=O)O
B = C[C@H](CS)C(=O)N[C@@H](Cc1ccc(O)c(O)c1)C(=O)O
C = O=C(NN1CCOCC1)C(CS)Cc1ccccc1 (centres unmarked)
## Input Order the 3 compounds from highest to lowest IC50. The reply should contain the labels ordered as requested.
## Output C, B, A
(C: 220 nM, B: 91 nM, A: 30 nM)
